Value source: patent US20250152746A1

Tested on: PCSK9 gene
Measurement Protocol: PCSK9 gRNA/SpCas9 editing in primary cynomolgus hepatocytes (Tables 2, 22)
Assay type: cell-based, cynomolgus monkey
Test Context: 500 ng/RNA/mL; SpCas9 mRNA MS002 1:1 by weight
In the oligonucleotide strings, read from the 5' end, every base follows the letter of its sugar. An asterisk marks phosphorothioate; unmarked linkages are phosphodiester. Other units and linkages are bracketed, terminal groups are in braces. A string of capitals states the bases alone. m = 2'-O-methyl; r = 2'-OH (RNA)
Listing of entries alongside the reported Cyno Primary Hepatocyte Editing % 500.
Number only, in %; omit the unit.

GA161: PCSK9 gRNA; protospacer GGACGAGGACGGCGACTACG (SEQ ID NO: 155) (nucleic acid) guide: mG*mG*mA*rCrGrArGrGrArCrGrGrCrGrArCrUrArCrGrGrUrUrUrUrArGrArGrCrUrArGrArArArUrArGrCrArArGrUrUrArArArArUrArArGrGrCrUrArGrUrCrCrGrUrUrArUrCrArArCrUrUrGrArArArArArGrUrGrGrCrArCrCrGrArGrUrCrGrGrUrGrCrU*mU*mU*mU
14.98

Recorded Cyno Primary Hepatocyte Editing % 500 for GA164: PCSK9 gRNA; protospacer GTCCTCGTCCTCCTGCGCAC (SEQ ID NO: 158) (nucleic acid, sugars from the 5' end m3 r94 m3, linkages s3 o93 s3 (s phosphorothioate, o phosphodiester), T or U not given here) guide: GUCCUCGUCCUCCUGCGCACGUUUUAGAGCUAGAAAUAGCAAGUUAAAAUAAGGCUAGUCCGUUAUCAACUUGAAAAAGUGGCACCGAGUCGGUGCUUUU , please?
13.96

Also need GA242: PCSK9 gRNA; protospacer TCACCGCTGCCGGCAACTTC (SEQ ID NO: 235) (nucleic acid, sugars from the 5' end m3 r94 m3, linkages s3 o93 s3 (s phosphorothioate, o phosphodiester), T or U not given here) guide: UCACCGCUGCCGGCAACUUCGUUUUAGAGCUAGAAAUAGCAAGUUAAAAUAAGGCUAGUCCGUUAUCAACUUGAAAAAGUGGCACCGAGUCGGUGCUUUU , thanks.
7.13

Also need GA166: PCSK9 gRNA; protospacer CGCCCGTGCGCAGGAGGACG (SEQ ID NO: 160) (nucleic acid, sugars from the 5' end m3 r94 m3, linkages s3 o93 s3 (s phosphorothioate, o phosphodiester), T or U not given here) guide: CGCCCGUGCGCAGGAGGACGGUUUUAGAGCUAGAAAUAGCAAGUUAAAAUAAGGCUAGUCCGUUAUCAACUUGAAAAAGUGGCACCGAGUCGGUGCUUUU , thanks.
14.39

Also need GA235: PCSK9 gRNA; protospacer CACCGCTGCCGGCAACTTCC (SEQ ID NO: 228) (nucleic acid, sugars from the 5' end m3 r94 m3, linkages s3 o93 s3 (s phosphorothioate, o phosphodiester), T or U not given here) guide: CACCGCUGCCGGCAACUUCCGUUUUAGAGCUAGAAAUAGCAAGUUAAAAUAAGGCUAGUCCGUUAUCAACUUGAAAAAGUGGCACCGAGUCGGUGCUUUU , thanks.
17.51

Also need GA172: PCSK9 gRNA; protospacer CAGTGCGCTCTGACTGCGAG (SEQ ID NO: 166) (nucleic acid, sugars from the 5' end m3 r94 m3, linkages s3 o93 s3 (s phosphorothioate, o phosphodiester), T or U not given here) guide: CAGUGCGCUCUGACUGCGAGGUUUUAGAGCUAGAAAUAGCAAGUUAAAAUAAGGCUAGUCCGUUAUCAACUUGAAAAAGUGGCACCGAGUCGGUGCUUUU , thanks.
2.11
